- measurement_notes: Plasma pharmacokinetics of sorafenib with RT, with or without CsA pretreatment, in freely moving rats
- Type: in vivo, Sprague-Dawley rats
- test_context: Sprague-Dawley, rat, plasma, po, 40 mg/kg, plasma, CsA 20 mg/kg i.p. + RT2Gy, sorafenib 40 mg/kg p.o. 24 hr later
- Procedure: A freely moving rat model was designed for the current study[21] (Fig. 1A). […] Pharmacokinetic parameters, including the area under the concentration vs. time curve (AUC), terminal elimination phase t1/2, Cmax, MRT, total plasma clearance and Vss, were calculated using the PK calculation software WinNonlin Standard Edition, version 1.1 (Scientific Consulting, Apex, NC, USA) using a compartmental method.
measured_attribute: AUC(0-t) (µg·h/mL)
Enter your answer as a number in µg·h/mL; do not include the unit.

Query :: Give the measured AUC(0-t) of CNC(=O)c1cc(Oc2ccc(NC(=O)Nc3ccc(Cl)c(C(F)(F)F)c3)cc2)ccn1 .
Result :: 18.6

* * *

- measurement_notes: Biliary excretion pharmacokinetics of Rho-123 after RT in freely moving rats
- Format: in vivo, Sprague-Dawley rats
- test_context: Sprague-Dawley, rat, bile, iv, 0.2 mg/kg, biliary excretion, RT9Gy, Rho-123 10 min later (concurrent)
measured_attribute: Cmax (ng/mL)
Enter your answer as a number in ng/mL; do not include the unit.

Query :: Give the measured Cmax of COC(=O)c1ccccc1-c1c2ccc(=N)cc-2oc2cc(N)ccc12 .
Result :: 2860

* * *

- measurement_notes: Biliary excretion pharmacokinetics of Rho-123 after RT in freely moving rats
- Type: in vivo, Sprague-Dawley rats
- test_context: Sprague-Dawley, rat, bile, iv, 0.2 mg/kg, biliary excretion, RT9Gy, Rho-123 0.2 mg/kg i.v. 10 min later (concurrent)
measured_attribute: AUC(0-t) (ng·h/mL)
Enter your answer as a number in ng·h/mL; do not include the unit.

Query :: Give the measured AUC(0-t) of COC(=O)c1ccccc1-c1c2ccc(=N)cc-2oc2cc(N)ccc12 .
Result :: 2710

* * *

- measurement_notes: Plasma pharmacokinetics of sorafenib with RT, with or without CsA pretreatment, in freely moving rats
- Format: in vivo, Sprague-Dawley rats
- test_context: Sprague-Dawley, rat, plasma, oral, 40 mg/kg, plasma, CsA 20 mg/kg i.p. + RT2Gy, sorafenib 40 mg/kg 24 hr later
measured_attribute: Tmax (h)
Enter your answer as a number in h; do not include the unit.

Query :: Give the measured Tmax of CNC(=O)c1cc(Oc2ccc(NC(=O)Nc3ccc(Cl)c(C(F)(F)F)c3)cc2)ccn1 .
Result :: 3.75

* * *

- measurement_notes: Biliary excretion pharmacokinetics of Rho-123 after RT in freely moving rats
- Format: in vivo, Sprague-Dawley rats
- test_context: Sprague-Dawley, rat, bile, iv, 0.2 mg/kg, biliary excretion, sham RT, Rho-123 0.2 mg/kg i.v., rats
measured_attribute: Cmax (ng/mL)
Enter your answer as a number in ng/mL; do not include the unit.

Query :: Give the measured Cmax of COC(=O)c1ccccc1-c1c2ccc(=N)cc-2oc2cc(N)ccc12 .
Result :: 2010

* * *

- measurement_notes: Plasma pharmacokinetics of sorafenib with RT, with or without CsA pretreatment, in freely moving rats
- Assay type: in vivo, Sprague-Dawley rats
- test_context: Sprague-Dawley, rat, plasma, po, 40 mg/kg, plasma, CsA 20 mg/kg i.p. + sorafenib 40 mg/kg p.o.
- Description: A freely moving rat model was designed for the current study[21] (Fig. 1A). […] Pharmacokinetic parameters, including the area under the concentration vs. time curve (AUC), terminal elimination phase t1/2, Cmax, MRT, total plasma clearance and Vss, were calculated using the PK calculation software WinNonlin Standard Edition, version 1.1 (Scientific Consulting, Apex, NC, USA) using a compartmental method.
measured_attribute: AUC(0-t) (ng·h/mL)
Enter your answer as a number in ng·h/mL; do not include the unit.

Query :: Give the measured AUC(0-t) of CNC(=O)c1cc(Oc2ccc(NC(=O)Nc3ccc(Cl)c(C(F)(F)F)c3)cc2)ccn1 .
Result :: 13100
